- TEST_SUMMARY: Selectivity ratio, ratio of Ke value of mu to kappa opioid receptor
READOUT_KIND: Ratio

CPD_SMILES: NCc1ccc2[nH]c3c(c2c1)C[C@@]1(O)C2Cc4ccc(O)c5c4[C@@]1(CCN2CC1CC1)[C@H]3O5
MEAS_VALUE: 1.8
//
CPD_SMILES: N=C(N)/N=C(\N)Nc1ccc2[nH]c3c(c2c1)C[C@@]1(O)C2Cc4ccc(O)c5c4[C@@]1(CCN2CC1CC1)[C@H]3O5
MEAS_VALUE: 74
//
CPD_SMILES: N=C(N)NCCc1ccc2[nH]c3c(c2c1)C[C@@]1(O)[C@H]2Cc4ccc(O)c5c4[C@@]1(CCN2CC1CC1)[C@H]3O5
MEAS_VALUE: 7.3
//
CPD_SMILES: N#CN/C(N)=N/Cc1ccc2[nH]c3c(c2c1)C[C@@]1(O)C2Cc4ccc(O)c5c4[C@@]1(CCN2CC1CC1)[C@H]3O5
MEAS_VALUE: 6.2
//
CPD_SMILES: N=C(N)NCc1ccc2[nH]c3c(c2c1)C[C@@]1(O)[C@H]2Cc4ccc(O)c5c4[C@@]1(CCN2CC1CC1)[C@H]3O5
MEAS_VALUE: 19
//
CPD_SMILES: CC(=N)NCc1ccc2[nH]c3c(c2c1)C[C@@]1(O)C2Cc4ccc(O)c5c4[C@@]1(CCN2CC1CC1)[C@H]3O5
MEAS_VALUE: 1.4
//
CPD_SMILES: C[N+](C)(C)CCc1ccc2[nH]c3c(c2c1)C[C@@]1(O)C2Cc4ccc(O)c5c4[C@@]1(CCN2CC1CC1)[C@H]3O5
MEAS_VALUE: 13

----------
- SYSTEM_UNDER_TEST: Kappa-type opioid receptor (Cavia porcellus) (UniProt P41144)
- Sequence (P41144 whole entry): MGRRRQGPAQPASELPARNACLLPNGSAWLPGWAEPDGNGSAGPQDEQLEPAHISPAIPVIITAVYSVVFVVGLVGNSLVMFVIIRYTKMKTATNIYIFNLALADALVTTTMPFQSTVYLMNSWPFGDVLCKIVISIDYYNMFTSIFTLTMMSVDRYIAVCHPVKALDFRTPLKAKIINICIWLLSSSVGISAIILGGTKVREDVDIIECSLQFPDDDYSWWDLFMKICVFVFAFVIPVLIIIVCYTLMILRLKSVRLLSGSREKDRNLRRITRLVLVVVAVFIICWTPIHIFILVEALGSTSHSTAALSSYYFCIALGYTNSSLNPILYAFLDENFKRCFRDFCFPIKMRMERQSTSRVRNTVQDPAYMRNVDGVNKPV
- TEST_SUMMARY: Ratio of the IC50 of Kappa receptor agonist, ethylketazocine in the presence of compound in GPI divided by the control IC50.
- Assay type: functional
READOUT_KIND: IC50 ratio

CPD_SMILES: N#CN/C(N)=N/Cc1ccc2[nH]c3c(c2c1)C[C@@]1(O)C2Cc4ccc(O)c5c4[C@@]1(CCN2CC1CC1)[C@H]3O5
MEAS_VALUE: 35.4
--
CPD_SMILES: N/C(S)=N/c1ccc2[nH]c3c(c2c1)C[C@@]1(O)C2Cc4ccc(O)c5c4[C@@]1(CCN2CC1CC1)[C@H]3O5
MEAS_VALUE: 14.9
--
CPD_SMILES: NCCc1ccc2[nH]c3c(c2c1)C[C@@]1(O)C2Cc4ccc(O)c5c4[C@@]1(CCN2CC1CC1)[C@H]3O5
MEAS_VALUE: 48.1
--
CPD_SMILES: N#CN/C(N)=N/c1ccc2[nH]c3c(c2c1)C[C@@]1(O)C2Cc4ccc(O)c5c4[C@@]1(CCN2CC1CC1)[C@H]3O5
MEAS_VALUE: 33
--
CPD_SMILES: CC(=N)NCCc1ccc2[nH]c3c(c2c1)C[C@@]1(O)C2Cc4ccc(O)c5c4[C@@]1(CCN2CC1CC1)[C@H]3O5
MEAS_VALUE: 72.1
--
CPD_SMILES: C[N+](C)(C)c1ccc2[nH]c3c(c2c1)C[C@@]1(O)C2Cc4ccc(O)c5c4[C@@]1(CCN2CC1CC1)[C@H]3O5
MEAS_VALUE: 33.3
--
CPD_SMILES: Nc1ccc2[nH]c3c(c2c1)C[C@@]1(O)C2Cc4ccc(O)c5c4[C@@]1(CCN2CC1CC1)[C@H]3O5
MEAS_VALUE: 4
--
CPD_SMILES: CSC(=N)Nc1ccc2[nH]c3c(c2c1)C[C@@]1(O)C2Cc4ccc(O)c5c4[C@@]1(CCN2CC1CC1)[C@H]3O5
MEAS_VALUE: 43.6
--
CPD_SMILES: C[N+](C)(C)Cc1ccc2[nH]c3c(c2c1)C[C@@]1(O)C2Cc4ccc(O)c5c4[C@@]1(CCN2CC1CC1)[C@H]3O5
MEAS_VALUE: 154
--
CPD_SMILES: CN(C)CCc1ccc2[nH]c3c(c2c1)C[C@@]1(O)C2Cc4ccc(O)c5c4[C@@]1(CCN2CC1CC1)[C@H]3O5
MEAS_VALUE: 32
--
CPD_SMILES: N=C(N)NCCc1ccc2[nH]c3c(c2c1)C[C@@]1(O)[C@H]2Cc4ccc(O)c5c4[C@@]1(CCN2CC1CC1)[C@H]3O5
MEAS_VALUE: 59.8
--
CPD_SMILES: CC(=N)Nc1ccc2[nH]c3c(c2c1)C[C@@]1(O)C2Cc4ccc(O)c5c4[C@@]1(CCN2CC1CC1)[C@H]3O5
MEAS_VALUE: 99.4
--
CPD_SMILES: C[N+](C)(C)CCc1ccc2[nH]c3c(c2c1)C[C@@]1(O)C2Cc4ccc(O)c5c4[C@@]1(CCN2CC1CC1)[C@H]3O5
MEAS_VALUE: 48
--
CPD_SMILES: N=C(N)/N=C(\N)Nc1ccc2[nH]c3c(c2c1)C[C@@]1(O)C2Cc4ccc(O)c5c4[C@@]1(CCN2CC1CC1)[C@H]3O5
MEAS_VALUE: 512
--
CPD_SMILES: CC(=N)NCc1ccc2[nH]c3c(c2c1)C[C@@]1(O)C2Cc4ccc(O)c5c4[C@@]1(CCN2CC1CC1)[C@H]3O5
MEAS_VALUE: 17.3
--
CPD_SMILES: N=C(N)NCc1ccc2[nH]c3c(c2c1)C[C@@]1(O)[C@H]2Cc4ccc(O)c5c4[C@@]1(CCN2CC1CC1)[C@H]3O5
MEAS_VALUE: 172
--
CPD_SMILES: NCc1ccc2[nH]c3c(c2c1)C[C@@]1(O)C2Cc4ccc(O)c5c4[C@@]1(CCN2CC1CC1)[C@H]3O5
MEAS_VALUE: 3.9
--
CPD_SMILES: CN1CC[C@]23c4c5ccc(O)c4O[C@H]2c2[nH]c4ccc(NC(=N)N)cc4c2C[C@@]3(O)C1C5
MEAS_VALUE: 6.8
--
CPD_SMILES: CN(C)c1ccc2[nH]c3c(c2c1)C[C@@]1(O)C2Cc4ccc(O)c5c4[C@@]1(CCN2CC1CC1)[C@H]3O5
MEAS_VALUE: 15.8
--
CPD_SMILES: N=C(N)Cc1ccc2[nH]c3c(c2c1)C[C@@]1(O)C2Cc4ccc(O)c5c4[C@@]1(CCN2CC1CC1)[C@H]3O5
MEAS_VALUE: 46.7
--
CPD_SMILES: N=C(N)c1ccc2[nH]c3c(c2c1)C[C@@]1(O)C2Cc4ccc(O)c5c4[C@@]1(CCN2CC1CC1)[C@H]3O5
MEAS_VALUE: 142
--
CPD_SMILES: CN(C)Cc1ccc2[nH]c3c(c2c1)C[C@@]1(O)C2Cc4ccc(O)c5c4[C@@]1(CCN2CC1CC1)[C@H]3O5
MEAS_VALUE: 125

----------
- SYSTEM_UNDER_TEST: Mu-type opioid receptor (Cavia porcellus) (UniProt P97266)
- Sequence (P97266 whole entry): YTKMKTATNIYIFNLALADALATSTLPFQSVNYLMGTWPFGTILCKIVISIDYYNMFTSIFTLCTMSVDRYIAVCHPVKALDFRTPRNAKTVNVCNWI
- TEST_SUMMARY: Opioid receptor mu 1 Antagonism (100 nM) is expressed as (Ke = [antagonist] / (IC50 ratio -1)
- Format: functional
For each record, check the reported Ke: if it is below 20 nM write fulfilled, else write not fulfilled.

CPD_SMILES: CC(=N)Nc1ccc2[nH]c3c(c2c1)C[C@@]1(O)C2Cc4ccc(O)c5c4[C@@]1(CCN2CC1CC1)[C@H]3O5
GROUP_LABEL: fulfilled

CPD_SMILES: NCc1ccc2[nH]c3c(c2c1)C[C@@]1(O)C2Cc4ccc(O)c5c4[C@@]1(CCN2CC1CC1)[C@H]3O5
GROUP_LABEL: not fulfilled

CPD_SMILES: N/C(S)=N/c1ccc2[nH]c3c(c2c1)C[C@@]1(O)C2Cc4ccc(O)c5c4[C@@]1(CCN2CC1CC1)[C@H]3O5
GROUP_LABEL: not fulfilled

CPD_SMILES: CC(=N)NCCc1ccc2[nH]c3c(c2c1)C[C@@]1(O)C2Cc4ccc(O)c5c4[C@@]1(CCN2CC1CC1)[C@H]3O5
GROUP_LABEL: fulfilled

CPD_SMILES: N#CN/C(N)=N/Cc1ccc2[nH]c3c(c2c1)C[C@@]1(O)C2Cc4ccc(O)c5c4[C@@]1(CCN2CC1CC1)[C@H]3O5
GROUP_LABEL: fulfilled

CPD_SMILES: N=C(N)c1ccc2[nH]c3c(c2c1)C[C@@]1(O)C2Cc4ccc(O)c5c4[C@@]1(CCN2CC1CC1)[C@H]3O5
GROUP_LABEL: fulfilled

CPD_SMILES: CC(=N)NCc1ccc2[nH]c3c(c2c1)C[C@@]1(O)C2Cc4ccc(O)c5c4[C@@]1(CCN2CC1CC1)[C@H]3O5
GROUP_LABEL: fulfilled

CPD_SMILES: CN(C)c1ccc2[nH]c3c(c2c1)C[C@@]1(O)C2Cc4ccc(O)c5c4[C@@]1(CCN2CC1CC1)[C@H]3O5
GROUP_LABEL: not fulfilled

CPD_SMILES: C[N+](C)(C)CCc1ccc2[nH]c3c(c2c1)C[C@@]1(O)C2Cc4ccc(O)c5c4[C@@]1(CCN2CC1CC1)[C@H]3O5
GROUP_LABEL: fulfilled
